assayed_target: human Cot catalytic domain (30-397 amino acids) (Homo sapiens, UniProt P41279)
Construct: Purified recombinant human Cot catalytic domain (30-397 amino acids) was purchased from Cama Biosciences; purchased Cama Biosciences (so in the source)
Sequence (P41279 30-397): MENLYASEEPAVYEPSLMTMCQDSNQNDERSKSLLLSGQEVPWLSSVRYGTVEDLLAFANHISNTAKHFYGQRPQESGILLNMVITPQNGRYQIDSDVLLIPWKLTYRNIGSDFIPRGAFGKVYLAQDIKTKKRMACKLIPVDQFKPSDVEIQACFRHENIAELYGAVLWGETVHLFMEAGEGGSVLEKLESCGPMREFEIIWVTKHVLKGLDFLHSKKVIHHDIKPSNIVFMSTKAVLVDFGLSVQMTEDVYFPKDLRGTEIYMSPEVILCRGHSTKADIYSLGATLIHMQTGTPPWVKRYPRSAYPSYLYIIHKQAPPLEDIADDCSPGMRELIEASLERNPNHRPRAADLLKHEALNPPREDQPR
assay_summary: High Throughput Cot Biochemical Assay (KinEASE TR-FRET)
condition_label: Cot KinEASE TR-FRET, 400 μM ATP; read-out: IC50 HTRF
pIC50: −log10 of the molar value.
Parameter threshold = 8. Response is 1 when pIC50 meets or exceeds it, else 0.

Completed entries (count: 5):
| compound | assayed_target | class |
| --- | --- | --- |
| Cc1cc2ncc(C#N)c(Nc3ccc(F)c(Cl)c3)c2cc1NC(c1ccc(F)cc1)c1cn(C)nn1 (stereo not shown) | human Cot catalytic domain (30-397 amino acids) (Homo sapiens, UniProt P41279) | 0 |
| Cc1c(C#N)cccc1[C@H](Nc1cc(Cl)c2ncc(C#N)c(NCC(C)(C)C(F)(F)F)c2c1)c1cn([C@@H](C)CF)nn1 | human Cot catalytic domain (30-397 amino acids) (Homo sapiens, UniProt P41279) | 1 |
| [2H][C@@](Nc1cc(Cl)c2ncc(C#N)c(NCC(C)(C)C)c2c1)(c1cn(C2(C)CC2)nn1)c1c(F)cccc1Cl | human Cot catalytic domain (30-397 amino acids) (Homo sapiens, UniProt P41279) | 0 |
| CC(C)(C)CNc1c(C#N)cnc2c(C#N)cc(N[C@H](c3cn(C4(c5ccncc5)CC4)nn3)c3ccccc3Cl)cc12 | human Cot catalytic domain (30-397 amino acids) (Homo sapiens, UniProt P41279) | 1 |
| [2H][C@@](Nc1cc(C#N)c2ncc(C#N)c(NCC(C)(C)C)c2c1)(c1cn(-c2cccnc2)nn1)c1ccccc1Cl | human Cot catalytic domain (30-397 amino acids) (Homo sapiens, UniProt P41279) | 0 |

Is it the case that Cc1c([C@H](Nc2cc(Cl)c3ncc(C#N)c(NCC(C)(C)C)c3c2)c2cn(C3(C(F)(F)F)CC3)nn2)cccc1-n1cnnn1 has pIC50 reaching or exceeding 8?
1

Exam item: decide whether the reported pIC50 for COc1c([C@@H](Nc2cc(Cl)c3ncc(C#N)c(NCC(C)(C)C)c3c2)c2ccccc2Cl)nnn1C1(C)CC1 is at least 8.
0

* * *

assayed_target: human Cot catalytic domain (30-397 amino acids) (Homo sapiens)
Construct: Purified recombinant human Cot catalytic domain (30-397 amino acids) was purchased from Cama Biosciences; purchased Cama Biosciences (so in the source)
assay_summary: High Throughput Cot Biochemical Assay (KinEASE TR-FRET)
condition_label: Cot biochemical HTRF (KinEASE TR-FRET) assay; read-out: IC50 HTRF
Description: Example 61: High Throughput Cot Biochemical Assay In this assay, Cot-catalyzes the phosphorylation of a XL665-labeled peptide substrate. Europium conjugated phospho-tyrosine specific antibody binds the resulting phosphorylated peptide. […] Purified recombinant human Cot catalytic domain (30-397 amino acids) was purchased from Cama Biosciences. […]
In this section we review reported pIC50 values for a set of compounds.
Lab note — pIC50 values are minus log10 of concentrations in M.

Below, 5 compounds whose answers are already recorded.
| sample_smiles | assayed_target | attribute_measured | recorded_value |
| --- | --- | --- | --- |
| CC1(Cn2cc([C@@H](Nc3cc(Cl)c4ncc(C#N)c(Nc5ccc(F)c(Cl)c5)c4c3)c3ccc(F)cc3)nn2)COC1 | human Cot catalytic domain (30-397 amino acids) (Homo sapiens) | pIC50 | 7.59 |
| CC[C@@H](Nc1c(C#N)cnc2c(Cl)cc(N[C@H](c3ccccc3)c3c[nH]nn3)cc12)c1ccccc1 | human Cot catalytic domain (30-397 amino acids) (Homo sapiens) | pIC50 | 6.11 |
| N#Cc1cnc2c(Cl)cc(N[C@@H](c3ccccc3)c3cn([C@@H]4CCNC[C@@H]4F)nn3)cc2c1Nc1ccc(F)c(Cl)c1 | human Cot catalytic domain (30-397 amino acids) (Homo sapiens) | pIC50 | 7.80 |
| COc1ccc(Nc2c(C#N)cnc3c(Cl)cc(N[C@@H](c4ccccc4)c4c[nH]nn4)cc23)cn1 | human Cot catalytic domain (30-397 amino acids) (Homo sapiens) | pIC50 | 6.76 |
| CC(C)(C)N1CCC(n2cc([C@@H](Nc3cc(Cl)c4ncc(C#N)c(Nc5c(F)ccc(Cl)c5F)c4c3)c3ccc(Cl)cc3)nn2)CC1 | human Cot catalytic domain (30-397 amino acids) (Homo sapiens) | pIC50 | 7.70 |

Form field: pIC50 recorded for CCN(C)C(=O)c1cccc([C@H](Nc2cc(Cl)c3ncc(C#N)c(Nc4ccc(F)c(Cl)c4)c3c2)c2cn(C3CCN(C(C)(C)C)CC3)nn2)c1 with human Cot catalytic domain (30-397 amino acids) (Homo sapiens) (enter value)
8.52

* * *

assayed_target: human Cot catalytic domain (30-397 amino acids) (Homo sapiens)
Construct: Purified recombinant human Cot catalytic domain (30-397 amino acids) was purchased from Cama Biosciences; purchased Cama Biosciences (so in the source)
assay_summary: High Throughput Cot Biochemical Assay (KinEASE TR-FRET)
condition_label: Cot biochemical HTRF (KinEASE TR-FRET) assay; read-out: IC50 HTRF
Overview of reported IC50 across a group of molecules:
Enter your answer as a number in nM; do not include the unit.

| molecule | IC50, nM |
| --- | --- |
| CC[C@@H](Nc1c(C#N)cnc2c(Cl)cc(N[C@@H](c3ccc(F)cc3)c3cn(C)nn3)cc12)c1ccccc1 | 6 |
| C[C@H](Nc1c(C#N)cnc2c(Cl)cc(N[C@@H](c3ccccc3)c3cn(C4CCN(C(C)(C)C)CC4)nn3)cc12)C(C)(C)C | 24 |
| COCCn1cc([C@@H](Nc2cc(Cl)c3ncc(C#N)c(Nc4ccc(F)c(Cl)c4)c3c2)c2ccccc2)nn1 | 13 |
| CC[C@@H](Nc1c(C#N)cnc2c(Cl)cc(N[C@@H](c3cccc(C(=O)N4CC(F)(F)C4)c3)c3c[nH]nn3)cc12)c1ccccc1 | 6 |
| CC(C)(C)n1cc([C@@H](Nc2cc(Cl)c3ncc(C#N)c(Nc4cnc(F)c(F)c4)c3c2)c2ccc(F)cc2)nn1 | 43 |
| CC(C)n1cc([C@@H](Nc2cc(Cl)c3ncc(C#N)c(N[C@H](C)c4ccccc4)c3c2)c2cccc(C(=O)N(C)C)c2)nn1 | 8 |
| CC(C)(C)N1CCC(n2cc([C@@H](Nc3cc(Cl)c4ncc(C#N)c(NN5CCCCC5)c4c3)c3ccccc3)nn2)CC1 | 61 |
| CC(C)(C)N1CCC(n2cc([C@@H](Nc3cc(Cl)c4ncc(C#N)c(Nc5cncc(Cl)c5)c4c3)c3ccccc3)nn2)CC1 | 20 |
| N#Cc1cnc2c(Cl)cc(N[C@@H](c3ccc(Cl)cc3)c3c[nH]nn3)cc2c1Nc1cc(F)c(F)cc1F | 377 |
| CC[C@@H](Nc1c(C#N)cnc2c(Cl)cc(N[C@@H](c3cccc(C(=O)N(C)C)c3)c3cn(C4CCN(C(C)(C)C)CC4)nn3)cc12)c1ccccc1 | 2 |

IC50 for CC(C)(C)N1CCC(n2cc([C@@H](Nc3cc(Cl)c4ncc(C#N)c(NC[Si](C)(C)C)c4c3)c3ccccc3)nn2)CC1 ?
10

* * *

assayed_target: human Cot catalytic domain (30-397 amino acids) (Homo sapiens, UniProt P41279)
Construct: Purified recombinant human Cot catalytic domain (30-397 amino acids) was purchased from Cama Biosciences; purchased Cama Biosciences (so in the source)
assay_summary: High Throughput Cot Biochemical Assay (KinEASE TR-FRET)
condition_label: Cot KinEASE TR-FRET (HTRF) biochemical assay, 400 μM ATP; read-out: IC50 HTRF
Source text: Example 61: High Throughput Cot Biochemical Assay In this assay, Cot-catalyzes the phosphorylation of a XL665-labeled peptide substrate. Europium conjugated phospho-tyrosine specific antibody binds the resulting phosphorylated peptide. […] Purified recombinant human Cot catalytic domain (30-397 amino acids) was purchased from Cama Biosciences. […]
pIC50: −log10 of the molar value.
Everything with pIC50 lower than 7 is 0; everything else, including exactly 7, is 1.

| compound | class |
| --- | --- |
| [2H][C@](Nc1cc(Cl)c2ncc(C#N)c(NC3(C)CC(F)(F)C3)c2c1)(c1ccc(F)cc1)c1cn(C2CC2)nn1 | 0 |

Threshold query (pIC50 >= 7) on [2H]C(Nc1cc(Cl)c2ncc(C#N)c(NC3[C@H]4CCC[C@@H]34)c2c1)(c1ccc(F)cc1)c1cn(C2CC2)nn1 (stereo in doubt)
1

Decide: is the reported value of pIC50 for CC(=O)N(C)c1cccc([C@H](Nc2cc(Br)c3ncc(C#N)c(NCC(C)(C)C)c3c2)c2cn(C3CC3)nn2)c1 equal to or greater than 7?
1

Given CC[C@@H](Nc1c(C#N)cnc2c(Cl)cc(N[C@@H](c3cccc(-c4ccccc4)c3)c3cn(C4CC4)nn3)cc12)c1ccccc1 , state whether its pIC50 is at least 7.
1
